protocol_description: chemical genetic growth profiling, strain panel (AID 1159580);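 also: tested at 20 µM; growth read once vehicle control cultures reached saturation at 30 °C; 1 = growth at the plate median or of vehicle wells; lower values mean less growth of the strain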
setup_conditions: S. cerevisiae deletion strains, growth OD, locus YHR079C, strain IRE1 (second series), active compounds read low
Out of some 5,500 compounds screened, about 2,000 (36%) were called active. Not shown: some 18% with an inconclusive outcome. This is one part of the list.
The following compounds are shown together with reported normalized growth values.
// keep it numeric: no unit symbol after the value

CC[C@@]1(O)C[C@H](O[C@H]2C[C@H](N(C)C)[C@H](O)[C@H](C)O2)c2c(cc3c(c2O)C(=O)c2c(O)ccc(O)c2C3=O)[C@H]1C(=O)OC 0.477

# input May I ask what normalized growth has been recorded for "CC[C@@]1(O)C[C@H](O)c2c(cc3c(c2O)C(=O)c2c(O)ccc(O)c2C3=O)[C@H]1C(=O)OC" ?
# output 0.856

# input What would you report for "O=c1c(-c2ccc(O)cc2)coc2cc(O)ccc12" ?
# output 0.993

# input Now try "Nc1nc(=S)c2[nH]cnc2[nH]1" .
# output 1

# input Next entry: "CC[C@H]1OC(=O)[C@H](C)[C@@H](O[C@H]2C[C@@](C)(OC)[C@@H](O)[C@H](C)O2)[C@H](C)[C@@H](O[C@@H]2O[C@H](C)C[C@H](N(C)C)[C@H]2O)[C@](C)(OC)C[C@@H](C)C(=O)[C@H](C)[C@@H](O)[C@]1(C)O"
# output 0.983
